This collection of values is drawn from paper PMC5540273.

tested on: DMPK2; construct: gene CDC42BPG; details: concentration: 1 μM, replicates: in singlicate; n = 1
assay_readout: %Inh
Give the value; after it, write the unit.

# returns recorded %Inh (system: DMPK2) for `Nc1ncnc2occ(-c3ccc4c(c3)CCN4C(=O)Cc3cc(F)ccc3F)c12`;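 note: KINOMEscan kinase panel screen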
51%

Consider next the compound `CSc1ccc(-c2nc3n(c2-c2ccncc2)CCC3)cc1` in the same way.
0%

Consider next the compound `O=C1NC(=O)C(c2ccc(Cl)cc2)=C1Nc1ccc(O)cc1` in the same way.
0%

Consider next the compound `CS(=O)(=O)Cc1ccc(Nc2nccc(-c3c(-c4cccc(NC(=O)C5CCCCC5)c4)nn4ncccc34)n2)cc1` in the same way.
35%

Consider next the compound `CNc1nc(-c2ccc3c(N)n[nH]c3c2)cc(N2C[C@@H](C(=O)Nc3ccccc3)CC[C@H]2C)n1` in the same way.
13%

Consider next the compound `CCCCc1nn2ncccc2c1-c1ccnc(NC2CC2)n1` in the same way.
0%

Consider next the compound `O=c1cc(N2CCOCC2)nc2n(Cc3cccc(Cl)c3Cl)c3ccccc3n12` in the same way.
24%

Consider next the compound `CN1c2ccc(-c3ccc(C(N)=O)cc3)cc2-c2[nH]ncc2S1(=O)=O` in the same way.
0%

Consider next the compound `CNc1nc(-c2ccc3c(N)n[nH]c3c2)cc(N2C[C@@H](C(=O)NC3CCCCC3)OC[C@H]2C)n1` in the same way.
11%

Consider next the compound `COc1cc2ncnc(Nc3cccc(Br)c3)c2cc1OC.Cl` in the same way.
5%

Consider next the compound `CCc1ccc(-c2ccc3c(c2)-c2n[nH]cc2S(=O)(=O)N3C)cc1` in the same way.
0%

Consider next the compound `Cc1ccccc1-c1cc(-c2c[nH]nc2-c2ccccn2)ccn1` in the same way.
0%

Consider next the compound `COc1cccc(NC(=O)Nc2ccc(C)c(-c3ccc(C(=O)Nc4ccncc4)cc3)c2)c1` in the same way.
5%

Consider next the compound `Cc1ccc(-c2nc(Nc3ccncc3)c3ccccc3n2)s1` in the same way.
13%

Consider next the compound `COc1nccc(-c2c(-c3ccc(F)cc3)ncn2CCCN2CCOCC2)n1` in the same way.
0%
